test system: Rhizoctonia solani; assay: Antifungal activity against Rhizoctonia solani by agar plate method; assay type: functional, organism-based
measurement kind: EC50 (µg/mL)
Entry rule: numbers only, all in µg/mL.

Exam item: Please list EC50 recorded for the compound `Cc1ccc(Cn2cnc(C(=O)N(C#N)Cc3ccccc3)c2C)cc1`
Marked response: 3.04

Exam item: Given `Cc1ccc(Cn2cnc(C(=O)N(C#N)CCCc3ccccc3)c2C)cc1` , respond with its EC50.
Marked response: 4.64

Exam item: Output EC50 of `Cc1c(C(=O)N(C#N)Cc2ccc(F)cc2F)ncn1Cc1ccc(F)cc1`
Marked response: 2.63

Exam item: Check the records and state EC50 for `COC(=O)c1ccccc1CN(C#N)C(=O)c1ncn(Cc2ccc(F)cc2)c1C`
Marked response: 13.3

Exam item: Supply reported EC50 belonging to this compound: `CCCCn1cnc(C(=O)N(C#N)Cc2ccccc2)c1C`
Marked response: 7.98

Exam item: Supply reported EC50 belonging to this compound: `Cc1ccc(Cn2cnc(C(=O)N(C#N)Cc3ccccc3F)c2C)cc1`
Marked response: 8.76

The reported numbers originate from ChEMBL document CHEMBL1944505.
